Assay: in vivo
Details: sheep, 0.15 mg/kg, morphine-6-glucuronide concentration (plasma)
OBSERVED PROPERTY: concentration at 2 h (ng/mL)
Numbers only, in ng/mL.

query: Value lookup for concentration at 2 h; key = CN1CC[C@]23c4c5ccc(O)c4O[C@H]2[C@@H](O[C@@H]2O[C@H](C(=O)O)[C@@H](O)[C@H](O)[C@H]2O)C=C[C@H]3[C@H]1C5 [morphine-6-glucuronide]
result: 21.9

---

Experiment: in vivo
Details: sheep, iv, 0.015 mg/kg, morphine-6-glucuronide concentration (plasma)
OBSERVED PROPERTY: concentration at 1.5 h (ng/mL)
Answers are plain numbers, in ng/mL.

query: Which concentration at 1.5 h value belongs to CN1CC[C@]23c4c5ccc(O)c4O[C@H]2[C@@H](O[C@@H]2O[C@H](C(=O)O)[C@@H](O)[C@H](O)[C@H]2O)C=C[C@H]3[C@H]1C5 [morphine-6-glucuronide] ?
result: 9.4

These entries and their values trace back to patent US5629011A.
